Would you mind telling me the reported pIC50 of each entry?
measured target: Prostaglandin G/H synthase 2 (Homo sapiens, UniProt P35354)
Sequence (P35354 whole entry): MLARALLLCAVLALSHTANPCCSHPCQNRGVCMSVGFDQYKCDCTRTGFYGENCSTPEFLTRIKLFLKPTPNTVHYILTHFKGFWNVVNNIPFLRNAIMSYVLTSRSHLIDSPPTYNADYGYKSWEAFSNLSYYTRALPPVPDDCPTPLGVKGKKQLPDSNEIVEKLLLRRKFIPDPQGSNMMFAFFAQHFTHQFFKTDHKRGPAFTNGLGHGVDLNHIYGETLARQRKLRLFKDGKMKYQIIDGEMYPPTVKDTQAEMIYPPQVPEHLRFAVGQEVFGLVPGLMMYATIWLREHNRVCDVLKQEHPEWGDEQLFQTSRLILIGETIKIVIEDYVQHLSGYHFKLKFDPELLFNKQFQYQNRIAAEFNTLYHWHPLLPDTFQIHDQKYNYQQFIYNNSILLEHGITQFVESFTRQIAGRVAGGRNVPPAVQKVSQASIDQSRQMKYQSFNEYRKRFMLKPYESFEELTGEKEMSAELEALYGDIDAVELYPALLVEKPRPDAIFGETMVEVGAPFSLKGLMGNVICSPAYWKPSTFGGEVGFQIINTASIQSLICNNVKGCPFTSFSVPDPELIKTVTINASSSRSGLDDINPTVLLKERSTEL
assay comment: Inhibition of human recombinant COX2 by fluorescence assay
// returns pIC50 (minus log10 of molar concentration), number only

IN: State pIC50 (Prostaglandin G/H synthase 2 (Homo sapiens, UniProt P35354)) of COc1ccc(-c2cn(Cc3ccc(S(N)(=O)=O)cc3)nn2)cc1 .
OUT: 4.89

IN: Provide pIC50, tested on Prostaglandin G/H synthase 2 (Homo sapiens, UniProt P35354), for Cc1ccc(-c2cn(-c3ccc(S(N)(=O)=O)cc3)nn2)cc1 .
OUT: 4.85

IN: Find pIC50 for NS(=O)(=O)c1ccc(CCn2cc(-c3ccc(Cl)cc3)nn2)cc1 on Prostaglandin G/H synthase 2 (Homo sapiens, UniProt P35354) and write it down.
OUT: 6.77

IN: Give pIC50; test system Prostaglandin G/H synthase 2 (Homo sapiens, UniProt P35354); compound NS(=O)(=O)c1ccc(Cn2cc(-c3ccc(F)cc3)nn2)cc1
OUT: 5.82

IN: Name the recorded pIC50 of NS(=O)(=O)c1ccc(CCn2cc(-c3ccc(F)cc3)nn2)cc1 , assay system Prostaglandin G/H synthase 2 (Homo sapiens, UniProt P35354).
OUT: 6.00

IN: Enter recorded pIC50 with Prostaglandin G/H synthase 2 (Homo sapiens, UniProt P35354) for NS(=O)(=O)c1ccc(Cn2cc(-c3ccccc3)nn2)cc1 here.
OUT: 5.19

IN: State pIC50 on Prostaglandin G/H synthase 2 (Homo sapiens, UniProt P35354). Entry: COc1ccc(-c2cn(CCc3ccc(S(N)(=O)=O)cc3)nn2)cc1
OUT: 4.57

IN: Please respond with reported pIC50 (system Prostaglandin G/H synthase 2 (Homo sapiens, UniProt P35354)) for Cc1ccc(-c2cn(CCc3ccc(S(N)(=O)=O)cc3)nn2)cc1 .
OUT: 5.47

IN: # lookup: Prostaglandin G/H synthase 2 (Homo sapiens, UniProt P35354) pIC50, key = NS(=O)(=O)c1ccc(CCn2cc(-c3ccccc3)nn2)cc1
OUT: 5.96

IN: Provide measured pIC50 on Prostaglandin G/H synthase 2 (Homo sapiens, UniProt P35354) for NS(=O)(=O)c1ccc(-n2cc(-c3ccccc3)nn2)cc1 please.
OUT: 5.89

IN: Give pIC50 for this entry on Prostaglandin G/H synthase 2 (Homo sapiens, UniProt P35354): NS(=O)(=O)c1ccc(-n2cc(-c3ccc(F)cc3)nn2)cc1
OUT: 4.87

IN: Name the recorded pIC50 of COc1ccc(-c2cn(-c3ccc(S(N)(=O)=O)cc3)nn2)cc1 , assay system Prostaglandin G/H synthase 2 (Homo sapiens, UniProt P35354).
OUT: 4.96

IN: Please tell me the measured pIC50 for Cc1ccc(-c2cn(Cc3ccc(S(N)(=O)=O)cc3)nn2)cc1 ; system: Prostaglandin G/H synthase 2 (Homo sapiens, UniProt P35354).
OUT: 5.92

IN: Write down measured pIC50 (Prostaglandin G/H synthase 2 (Homo sapiens, UniProt P35354)) for this compound. NS(=O)(=O)c1ccc(Cn2cc(-c3ccc(Cl)cc3)nn2)cc1
OUT: 4.55

IN: Give pIC50 for NS(=O)(=O)c1ccc(-n2cc(-c3ccc(Cl)cc3)nn2)cc1 tested on Prostaglandin G/H synthase 2 (Homo sapiens, UniProt P35354).
OUT: 5.89
